- Tested on: Fibroblast
- Assay Text: Multiplex assay against human fibroblast
- Assay type: toxicity, cell-based
- Recorded Conditions: 48 h, 10 µM, compound concentration 10 uM, number of replicates 2
Measure: Population Normal (%)

Compound: COCCN1CCN(CCn2ccc(Nc3ncc4c(n3)-c3c(nn(C)c3-c3ccccc3)C[C@H]4C)n2)CC1
Result: 99
--
Compound: Cc1c(C(=O)Nc2ccc(N3C[C@@H](C)O[C@@H](C)C3)nc2)cccc1-c1ccc(OC(F)(F)F)cc1 [SONIDEGIB]
Result: 100
--
Compound: CC1(C)C(=O)N([C@H]2CCc3c(O)cccc32)c2nc(Nc3cccc(CN4CCCC4)c3)ncc21
Result: 97
--
Compound: COc1cc(OC)cc(C(=O)NNC(=O)Nc2cccc3ccccc23)c1
Result: 99
--
Compound: CCNc1ccc(-c2nn(-c3ccccc3C)c3c2C(C)Cc2nc(NC(=O)OC)sc2-3)cn1.O=C(O)C(F)(F)F (stereo not given)
Result: 100
